- runConditions: 303.15 K; 101 kPa; Liquid
assayReadout: viscosity (mPa·s)
// units = mPa·s; emit number, no label

CCCCCCCCO :: 6.433

Would you mind telling me what viscosity value was observed for CCCCCCCCCCO ?
9.716

For CCCCCCCO then?
5.048

For Cc1ccccc1 then?
0.525

---

- runConditions: 303.15 K; 101 kPa; Liquid; Pycnometric method
assayReadout: mass density (kg/m3)
// units = kg/m3; emit number, no label

Some molecules with recorded mass density:
Cc1ccccc1 :: 856.62
CCCCCCCO :: 814.89
CCCCCCCCCCO :: 822.87

Now look at this entry.
Would you mind telling me what mass density value was observed for CCCCCCCCO ?
818.38

---

- runConditions: 313.15 K; 101 kPa; Liquid; Pycnometric method
± gives the expanded uncertainty stated by the source.
assayReadout: mass density

Cc1ccccc1 [toluene] :: 847.03 ± 0.32 kg/m3

Would you mind telling me what mass density value was observed for CCCCCCCCCCO [decan-1-ol] ?
815.97 ± 0.31 kg/m3

For CCCCCCCO [heptan-1-ol] then?
807.68 ± 0.3 kg/m3

For CCCCCCCCO [octan-1-ol] then?
811.05 ± 0.3 kg/m3

---

- runConditions: 313.15 K; 101 kPa; Liquid
Numbers after ± are expanded uncertainties.
Documented viscosity across a set of compounds
Include the unit after the number when you answer.

Some compounds with recorded viscosity:
Cc1ccccc1 :: 0.471 ± 0.027 mPa·s
CCCCCCCCCCO :: 6.82 ± 0.28 mPa·s
CCCCCCCO :: 3.712 ± 0.17 mPa·s

Now look at this entry.
Would you mind telling me what viscosity value was observed for CCCCCCCCO ?
4.603 ± 0.2 mPa·s

---

Documented speed of sound across a set of molecules
- runConditions: 313.15 K; 101.33 kPa; Liquid; Frequency=2 MHz; Linear variable-path acoustic interferometer
Numbers after ± are expanded uncertainties.
Include the unit after the number when you answer.

Some molecules with recorded speed of sound:
CCCCCCCO [heptan-1-ol] :: 1279 ± 3 m/s
CCCCCCCCCCO [decan-1-ol] :: 1334 ± 3 m/s
CCCCCCCCO [octan-1-ol] :: 1304 ± 3 m/s

Now look at this entry.
Would you mind telling me what speed of sound value was observed for Cc1ccccc1 [toluene] ?
1256 ± 2 m/s

---

- runConditions: 303.15 K; 101.33 kPa; Liquid; Frequency=2 MHz; Linear variable-path acoustic interferometer
Numbers after ± are expanded uncertainties.
Documented speed of sound across a set of compounds
Include the unit after the number when you answer.

Some compounds with recorded speed of sound:
CCCCCCCCCCO [decan-1-ol] :: 1366 ± 3 m/s
Cc1ccccc1 [toluene] :: 1289 ± 3 m/s
CCCCCCCO [heptan-1-ol] :: 1313 ± 3 m/s

Now look at this entry.
Would you mind telling me what speed of sound value was observed for CCCCCCCCO [octan-1-ol] ?
1334 ± 3 m/s
